// values below are pKi; system is Coagulation factor X (Homo sapiens)
Sequence (P00742 41-179 limits assumed): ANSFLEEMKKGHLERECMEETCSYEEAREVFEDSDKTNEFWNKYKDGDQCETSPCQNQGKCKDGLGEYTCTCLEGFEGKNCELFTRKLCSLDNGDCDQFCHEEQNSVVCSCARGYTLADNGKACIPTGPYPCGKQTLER
Sequence (P00742 235-488 limits assumed): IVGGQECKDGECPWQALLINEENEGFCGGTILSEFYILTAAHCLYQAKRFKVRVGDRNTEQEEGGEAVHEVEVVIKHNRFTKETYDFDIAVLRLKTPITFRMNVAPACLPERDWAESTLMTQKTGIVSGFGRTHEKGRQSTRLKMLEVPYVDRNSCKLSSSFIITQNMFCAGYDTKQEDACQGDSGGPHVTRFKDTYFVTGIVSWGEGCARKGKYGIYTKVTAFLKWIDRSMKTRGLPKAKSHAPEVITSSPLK
Please report pKi as the negative decimal logarithm of the molar concentration, giving only the number.

input: Suppose we examine the molecule FC(F)(CNc1nccc2oc(Cc3ccccc3-n3cnnn3)nc12)C1CCCCN1 (configuration not stated) ; what pKi value has been reported?
output: 7.96

input: What does the data say about its pKi? Entry: FC(F)(CNc1cccc2oc(Cc3ccccc3-n3cncn3)nc12)C1CCCCN1 (configuration not stated)
output: 4.22

input: Name the reported pKi value associated with the molecule Clc1cccc(Cc2nc3c(NCCC4CCCCN4)nccc3o2)c1 (stereo in doubt; 26)
output: 6.34

input: Fill in: pKi of FC(F)CN1CCCCC1CCNc1nccc2oc(Cc3cc(Cl)ccc3-n3cncn3)nc12 (configuration not stated) is ___
output: 8.33

input: // returns reported pKi for input `[O-][n+]1ccccc1C(F)(F)CNc1nccc2oc(Cc3cccc(Cl)c3)nc12`
output: 5.52

input: Form field: reported pKi of `FC(F)(CNc1nccc2oc(Cc3cc(Cl)ccc3-n3cncn3)nc12)c1ccccn1`
output: 6.11

input: Recorded pKi of Clc1ccc(-n2cncn2)c(Cc2nc3c(NCCC4CCCCN4)nccc3o2)c1 (configuration not stated) , please.
output: 8.41
